Target: T1, Elk1-db (ETS DNA-binding domain) (Homo sapiens, UniProt P19419 1-96)
T1 sequence: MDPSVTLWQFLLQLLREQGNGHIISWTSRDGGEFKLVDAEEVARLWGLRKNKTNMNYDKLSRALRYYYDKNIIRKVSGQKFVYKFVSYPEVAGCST
Assay: EMSA; 10 mM Tris pH 7.5, 50 mM KCl, 1 mM DTT, 1 ug poly(dI-dC), 5% glycerol, 1 mM EDTA, 0.3% BSA, protease inhibitors; 20 fmol probe, 300 ng Elk1-db; 20 min room temperature; 6% native PAGE in 0.5X TBE at 4 C
Conditions: protein: recombinant; tags: 6xHis; label: 3' biotin on both strands; blunt before labelling
MEASUREMENT_TYPE: binding result

Consider the worked cases shown below.
KATNA1 UTR2_Mut (dsDNA) DNA 1: GACTGGGTCAGGCCCTCTCCTTCTATTGCCGGGATCTCCACTC DNA 2: GAGTGGAGATCCCGGCAATAGAAGGAGAGGGCCTGACCCAGTC; no binding
KATNA1 UTR1_WT (+113/+122) (dsDNA) DNA 1: CGAGGTCGTCCCCGGCACCGGAAGTGACCCTGGCGGGTTTGT DNA 2: ACAAACCCGCCAGGGTCACTTCCGGTGCCGGGGACGACCTCG; binds
KATNA1 Promoter_WT (-428/-419) (dsDNA) DNA 1: AGGGTGGAGATTGAGACTGGAGGAAGCCCTGTGCAGTACATAT DNA 2: ATATGTACTGCACAGGGCTTCCTCCAGTCTCAATCTCCACCCT; no binding
KATNA1 UTR2_WT (+253/+262) (dsDNA) DNA 1: GACTGGGTCAGGCCCTCCTTCCTCGCTGCCGGGATCTCCACTC DNA 2: GAGTGGAGATCCCGGCAGCGAGGAAGGAGGGCCTGACCCAGTC; no binding

Identify measured binding result associated with KATNA1 Promoter_Mut (dsDNA) DNA 1: AGGGTGGAGATTGAGACCAAGAAGGACCCTGTGCAGTACATAT DNA 2: ATATGTACTGCACAGGGTCCTTCTTGGTCTCAATCTCCACCCT
no binding

For the binder KATNA1 UTR1_Mut (dsDNA) DNA 1: CGAGGTCGTCCCCGGTGTTAAGGATGACCCTGGCGGGTTTGT DNA 2: ACAAACCCGCCAGGGTCATCCTTAACACCGGGGACGACCTCG , give its reported binding result.
no binding
